Molecular target: T1, Rtt103p CID Q19A (Saccharomyces cerevisiae)
T1 chain: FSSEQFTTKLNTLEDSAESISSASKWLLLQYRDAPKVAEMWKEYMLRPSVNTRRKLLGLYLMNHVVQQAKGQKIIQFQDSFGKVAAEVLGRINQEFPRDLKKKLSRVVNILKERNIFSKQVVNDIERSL
Assay: FP
Non-standard residues stand in square brackets, D forms with d. No end group written: not given here. pT = C[C@@H](OP(=O)(O)O)[C@H](N)C(=O)O; FAM = 5,6-carboxyfluorescein
endpointName: Kd (µM)
Write down the numeric answer in µM and omit the unit.

Data request: What Kd value was documented for this binder, {FAM}-PSYSP[pT]SPSYSPTSPS [FAM-PSYSP(pT)SPSYSPTSPS] ?
Data returned: 48

Ref: paper PMC5452035
